growth inhibition reference
Test: NCI Yeast Anticancer Drug Screen. Data for the CLN2oe strain (AID 163);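 further: 0% = growth of vehicle-only control cultures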
Conditions: S. cerevisiae CLN2oe strain, at 3.7 µM, active compounds read high
Protocol: Growth inhibition of yeast strains with defined genetic alterations is measured as a screen for potential anti-cancer activity. Selected strains with alterations in DNA damage repair or cell cycle control were exposed to compounds and growth inhibition was measured relative to vehicle treated controls. The strain used in this assay is CLN2oe
The panel holds about 79,000 compounds, 15% with a hit somewhere; the sample as a whole holds those more often.

| Molecule | growth inhibition [%] |
| --- | --- |
| O=C1C[C@H]2[C@H](c3ccc(Br)cc3)[C@H]3C(=O)c4ccccc4NC(=O)[C@@H]3[C@@]2(O)c2ccccc2N1 | 16 |
| N#CC1OB(O)c2ccccc21 (stereo not given) | -2 |
| Cc1cccc(C)c1NC(=O)CCC(=O)C(C)C(=O)c1ccc(O)cc1 (stereo not given) | -4 |
| CCCCCCCSCC1C(=O)C23C(O)C1CCC2C12COC3(O)C(O)C1C(C)(C)CCC2O (stereo not given) | 6 |
| CCCCCCNCCCNc1c2ccccc2nc2cccc([N+](=O)[O-])c12 | -6 |
| Nc1cc(Cl)ccc1Nc1ccccc1 | 3 |
| CC1=COC2=C(C)C(=O)C(=O)c3c(C)ccc1c32 | 44 |
| COc1ccc(C(C)c2cc3c(cc2OC(C)O)OCO3)cc1 (stereo not given) | 1 |
| O=C(NC(N1CCN(c2cc3c(cc2F)c(=O)c(C(=O)O)cn3C2CC2)CC1)(C(F)(F)F)C(F)(F)F)c1ccccc1 | 0 |
| Cc1cc(C)c(S(=O)(=O)c2ccc(Cl)cc2)c(C)c1 | -15 |

* * *

Test: NCI Yeast Anticancer Drug Screen. Data for the sgs1 strain (AID 173);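 further: 0% = growth of vehicle-only control cultures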
Details: S. cerevisiae sgs1 mutant, at 33.0 µM, active compounds read high
About 79,000 compounds went through this panel and 15% of them were active in at least one assay; those are over-represented in the sample as a whole.

| Molecule | growth inhibition, % |
| --- | --- |
| CC(=O)CCC1=C(C)C(=O)C(=O)C(C)=C1O | 22 |
| CCOC(=O)CC1(C)/C(=N\Nc2ccc([N+](=O)[O-])cc2[N+](=O)[O-])CCC2C1CCC1(C)C(C(C)CCCC(C)C)CCC21 (stereo unspecified) | -1 |
| COc1cc([C@@H]2c3cc4c(cc3[C@@H](NC(=O)NO)[C@H]3COC(=O)[C@H]23)OCO4)cc(OC)c1O | 3 |
| Cc1cccc(C)c1NC(=O)C(C#N)C1=C(Cl)C(=O)c2ccccc2C1=O (stereo unspecified) | 98 |
| Cc1cc2nc3ccccc3n2c2ccccc12 | -29 |
| Cc1cc(O)c(C(C)C)cc1SC#N | 28 |
| O=C(Cc1ccccc1)NNc1nc(NNC(=O)c2ccncc2)nc(Nc2ccc([N+](=O)[O-])cc2)n1 | 69 |
| C/C1=C/C2OC(=O)C3(C)C2C(CC2(C)OC1=CC2=O)OC3(O)C(C)C (stereo unspecified) | 72 |
| CSc1nc(-c2ccccc2)nc(=[N+]2CCOCC2)s1 | 94 |
| CN(C)CCNc1ccc2ncn3c4ccc(O)cc4c(=O)c1c23 | -16 |
| Cc1ccc(C)c(C(=N)c2ccccc2Cc2ccccc2)c1 | 95 |
| Cc1cc(C)c2[s+]snc2c1 | 17 |
| BrC1C2CCC3OC3C12 (stereo unspecified) | 99 |
| Clc1ccc(/C(=C\c2ccccc2)Cn2ccnc2)cc1 | 90 |
| N#CCC(=O)N/N=C(\c1ccccc1)C(c1ccccc1)C1(O)C(=O)Nc2c(Cl)ccc(Cl)c21 (stereo unspecified) | 11 |
| COc1ccccc1NC(=O)c1ccc(Cl)cc1 | 3 |
| O=C(C(Cl)=C(N1CCCCC1)N1CCCCC1)C(Cl)Cl | -4 |
| COC(=O)/C(C#N)=C\NC(=S)C(N)=S | 99 |
| CC1=C(C)C(=O)C2=C(OCCO2)C1=O | 26 |
| Cc1c(C(=O)/C=C/c2ccccc2[N+](=O)[O-])[n+](=O)c2ccccc2n1[O-] | 94 |
| CCN(CC)C(=S)N/N=C(\C)c1ccccc1O | 97 |
